cond: 313.15 K; 101.33 kPa; Liquid; Vibrating tube method
metric: mass density (kg/m3)
Your answer is read as kg/m3, so omit the unit and give the number.

Record CC[n+]1cccc(C)c1.O=S(=O)([N-]S(=O)(=O)C(F)(F)F)C(F)(F)F . Reported mass density: 1474.05

# mass density of CC[n+]1ccc(C)cc1.O=S(=O)([N-]S(=O)(=O)C(F)(F)F)C(F)(F)F = 1472

Measured mass density, CC[n+]1ccccc1.O=S(=O)([N-]S(=O)(=O)C(F)(F)F)C(F)(F)F [1-ethylpyridinium bis[(trifluoromethyl)sulfonyl]imide] : 1520.99

Per the record, CC[n+]1ccccc1C.O=S(=O)([N-]S(=O)(=O)C(F)(F)F)C(F)(F)F has mass density of 1490.85

----------
cond: 323.15 K; 101.33 kPa; Liquid; Vibrating tube method
Can you tell me mass density for the items I'm about to list?
Your answer should be a plain number; it is taken to be in kg/m3.

Entry under test: CC[n+]1ccccc1C.O=S(=O)([N-]S(=O)(=O)C(F)(F)F)C(F)(F)F . Its mass density was 1481.29

Item: CC[n+]1ccc(C)cc1.O=S(=O)([N-]S(=O)(=O)C(F)(F)F)C(F)(F)F | mass density: 1462.32

CC[n+]1cccc(C)c1.O=S(=O)([N-]S(=O)(=O)C(F)(F)F)C(F)(F)F has a reported mass density of 1464.49

Lab note: CC[n+]1ccccc1.O=S(=O)([N-]S(=O)(=O)C(F)(F)F)C(F)(F)F [1-ethylpyridinium bis[(trifluoromethyl)sulfonyl]imide] gave mass density of 1511.2

----------
cond: 298.15 K; 101.33 kPa; Liquid; Sing-around technique in a fixed-path interferometer
metric: speed of sound (m/s)
# value in m/s; strip the unit string

Sure, the documented speed of sound for CC[n+]1ccccc1C.O=S(=O)([N-]S(=O)(=O)C(F)(F)F)C(F)(F)F is 1299.5

The value of speed of sound measured for the compound CC[n+]1ccc(C)cc1.O=S(=O)([N-]S(=O)(=O)C(F)(F)F)C(F)(F)F turned out to be 1263.8

Per the records, this compound ( CC[n+]1cccc(C)c1.O=S(=O)([N-]S(=O)(=O)C(F)(F)F)C(F)(F)F ) has speed of sound equal to 1259.6

Short answer for CC[n+]1ccccc1.O=S(=O)([N-]S(=O)(=O)C(F)(F)F)C(F)(F)F [1-ethylpyridinium bis[(trifluoromethyl)sulfonyl]imide] : speed of sound was 1268.1

----------
cond: 323.15 K; 101.33 kPa; Liquid; Sing-around technique in a fixed-path interferometer
Provide the recorded speed of sound for the entries that follow.
Please give a number only; it is taken to be in m/s.

Value of measured speed of sound for the entry CC[n+]1ccccc1.O=S(=O)([N-]S(=O)(=O)C(F)(F)F)C(F)(F)F [1-ethylpyridinium bis[(trifluoromethyl)sulfonyl]imide] : 1214.5

Quick note, speed of sound for CC[n+]1ccc(C)cc1.O=S(=O)([N-]S(=O)(=O)C(F)(F)F)C(F)(F)F landed at 1208.3

Noted for CC[n+]1ccccc1C.O=S(=O)([N-]S(=O)(=O)C(F)(F)F)C(F)(F)F : its speed of sound reads 1244.6

Quick note, speed of sound for CC[n+]1cccc(C)c1.O=S(=O)([N-]S(=O)(=O)C(F)(F)F)C(F)(F)F landed at 1205.4
